- Tested on: microorganisms
- experiment-description: Morphology, biofilm and growth disrupting peptides (Table 5)
- Format: cell-based
- Parameters: key: A: Peptide aggregates; B: Less hyphal formation; Clumps; Diffuse clumps and small polyps; F: Diffuse growth; H: Thin; I: Growth inhibition; Microcolony formation; Rippled; Small polyps; Thick; W: Halo formation on top, microlonies on bottom
- conditions-used: E. faecalis
measurement-kind: Organism, effect: E. faecalis

[
  {
    "substance": "PF-347: peptide having multiple activities (GIFTGVTVVVSLKHC; Peptide with targeting and/or antimicrobial activity)",
    "measurement-kind": "Organism, effect: E. faecalis",
    "readout-value": "E. faecalis (C)"
  },
  {
    "substance": "MGIIAGIIKVIKSLIEQFTGK [PF-007]",
    "measurement-kind": "Organism, effect: E. faecalis",
    "readout-value": "E. faecalis (A)"
  },
  {
    "substance": "PF-381: peptide having multiple activities (chain 1 QGANPCQQVGFTVNDPDCRLAKTV; chain 2 QGANPCQQVGFTVNDPDCRLAKTV; Peptide with targeting and/or antimicrobial activity)",
    "measurement-kind": "Organism, effect: E. faecalis",
    "readout-value": "E. faecalis (C)"
  },
  {
    "substance": "ALCSVIKAIELGIINVHLQ [PF-366]",
    "measurement-kind": "Organism, effect: E. faecalis",
    "readout-value": "E. faecalis (C)"
  }
]

Okay, now this substance:
Incoming: Tell me reported Organism, effect: E. faecalis for PF-393: peptide having multiple activities (chain 1 DLVQSILSEFKKSG; chain 2 DLVQSILSEFKKSG; Peptide with targeting and/or antimicrobial activity) , tested with microorganisms.
Outgoing: E. faecalis (A)

###

- Tested on: microorganisms
- experiment-description: Morphology, biofilm and growth disrupting peptides (Table 5)
- Type: cell-based
- Parameters: key: A: Peptide aggregates; B: Less hyphal formation; Clumps; Diffuse clumps and small polyps; F: Diffuse growth; H: Thin; I: Growth inhibition; Microcolony formation; Rippled; Small polyps; Thick; W: Halo formation on top, microlonies on bottom
- conditions-used: MRSA
measurement-kind: Organism, effect: MRSA

Examples with their reported Organism, effect: MRSA follow.
[
  {
    "substance": "PF-398: peptide having multiple activities (chain 1 ILVVLAGILLVVLSYVGISKFKMNC; chain 2 ILVVLAGILLVVLSYVGISKFKMNC; Peptide with targeting and/or antimicrobial activity)",
    "readout-value": "MRSA (C)"
  },
  {
    "substance": "PF-171: peptide having multiple activities (TQVTLCRTW; Peptide with targeting and/or antimicrobial activity)",
    "readout-value": "MRSA (M)"
  },
  {
    "substance": "PF-417: peptide having multiple activities (chain 1 DSYFRS; chain 2 DSYFRS; Peptide with targeting and/or antimicrobial activity)",
    "readout-value": "MRSA (M)"
  },
  {
    "substance": "PF-065: peptide having multiple activities (LEKNTRDNYFIHAIDRIYINTSKGLFPESELVAWG; Peptide with targeting and/or antimicrobial activity)",
    "readout-value": "MRSA (R)"
  },
  {
    "substance": "PF-357: peptide having multiple activities (chain 1 MLTIIIGFIFWTMTLMLGYLIGEREGRKHE; chain 2 MLTIIIGFIFWTMTLMLGYLIGEREGRKHE; Peptide with targeting and/or antimicrobial activity)",
    "readout-value": "MRSA (M)"
  },
  {
    "substance": "PF-410: peptide having multiple activities (chain 1 FALELIALCRNLFIVYFP; chain 2 FALELIALCRNLFIVYFP; Peptide with targeting and/or antimicrobial activity)",
    "readout-value": "MRSA (M)"
  }
]

Incoming: So what does the record say about Organism, effect: MRSA for PF-362: peptide having multiple activities (chain 1 NIERILKEKVWMIRCVE; chain 2 NIERILKEKVWMIRCVE; Peptide with targeting and/or antimicrobial activity) ?
Outgoing: MRSA (C)

Incoming: // lookup Organism, effect: MRSA for PF-399: peptide having multiple activities (chain 1 FPIISALLGAIICIAIYSFIVNRKA; chain 2 FPIISALLGAIICIAIYSFIVNRKA; Peptide with targeting and/or antimicrobial activity)
Outgoing: MRSA (C)

Incoming: Fill blank: measured Organism, effect: MRSA of the substance PF-015: peptide having multiple activities (SIDKRNLYNLKYYE; Peptide with targeting and/or antimicrobial activity) is ____.
Outgoing: MRSA (W)

Incoming: // returns reported Organism, effect: MRSA for input PF-347: peptide having multiple activities (GIFTGVTVVVSLKHC; Peptide with targeting and/or antimicrobial activity)
Outgoing: MRSA (C)

Incoming: Data request, read-out Organism, effect: MRSA, for LIQKGLNQTFIVVIRLNNFIKKS [PF-013]
Outgoing: MRSA (R)

Incoming: State the recorded Organism, effect: MRSA for this entry: ALDCSEQSVILWYETILDKIVGVIK [PF-028]
Outgoing: MRSA (R)

Incoming: // Organism, effect: MRSA lookup, key: PF-405: peptide having multiple activities (chain 1 LVRIEVDDLEEWYERNFI; chain 2 LVRIEVDDLEEWYERNFI; Peptide with targeting and/or antimicrobial activity)
Outgoing: MRSA (M)

The origin of these recorded values is patent US20110039763A1.
